testedTarget: Retinal dehydrogenase 2 (Homo sapiens) (UniProt O94788)
assayExplanation: qHTS for Inhibitors of the Aldehyde Dehydrogenase Family (ALDH1A2) Confirmation screens (AID 2061314); also: nearly all actives have a fitted effect of over 65% in size; also: potency is read from the fitted curve at half-maximal effect
conditionParameters: ALDH1A2 enzyme inhibition qHTS confirmation; series mostly up to 45.9 µM
Records with an inconclusive call do not appear. Activity calls are given as the source filed them. Calls follow the shape of the dose curve; as a rule, active = well fitted inhibition curve with a large enough effect; inconclusive = small, poorly fitted or top-dose-only effect; inactive = no such curve, though single readings can be large or run the other way.
valueType: Potency

Example cases with answers are listed next.
>>> print(df.to_string())
                                   compound                              testedtarget  valuetype               val
0  O=C(CC1N=C2c3ccccc3N=C(SCc3cccc(F)c3)N2C1=O)NCc1cccs1 (centres undefined)  Retinal dehydrogenase 2 (Homo sapiens) (UniProt O94788)    Potency          inactive
1  Cc1ccc(-c2nnc3ccccc3c2C(=O)Nc2cccc(C(F)(F)F)c2)cc1  Retinal dehydrogenase 2 (Homo sapiens) (UniProt O94788)    Potency          inactive
2  N#Cc1nc(Nc2cccc([N+](=O)[O-])c2)nc(NC2CCCC2)n1  Retinal dehydrogenase 2 (Homo sapiens) (UniProt O94788)    Potency  6.34 µM (active)
3  O=C(NCCOc1ccccc1)[C@@H]1C[C@@H](c2ccc(F)cc2)N([S+](=O)([O-])c2ccccc2)C1  Retinal dehydrogenase 2 (Homo sapiens) (UniProt O94788)    Potency          inactive
4  CC(C)c1ccc(S(=O)(=O)c2cnc(SCC(=O)Nc3ccc4c(c3)OCCO4)[nH]c2=O)cc1  Retinal dehydrogenase 2 (Homo sapiens) (UniProt O94788)    Potency  10.1 µM (active)

Quick request: Potency for each listed item, please.
1. COc1cccc(N2CCN(c3nc(C(=O)NCc4cccc(C)c4)cs3)CC2)c1
2. Oc1cc2c(cc1CN1CCN(c3ncccn3)CC1)OCO2
3. CCc1ccc(C(=O)c2cnc3ccc(C)cc3c2S(=O)(=O)c2ccc(OC)cc2)cc1

Output line:
["inactive", "2.01 µM (active)", "inactive"]

Input line: Tell me Potency reported for COc1ccc(NC(=O)CN2C(=O)COc3ccc(S(=O)(=O)N4CCOCC4)cc32)cc1
Output line: inactive

====

assayExplanation: BET inhibitor-based combinations targeting novel dependencies in MECOM-rearranged (r) AML: MV-4-11 cell line (AID 2202233); also: potency is read from the fitted curve at half-maximal effect; nearly all actives have a fitted effect of over 45% in size
conditionParameters: MV-4-11 AML viability, CellTiter-Glo luminescence, 48 h; series mostly up to 46 µM
Results filed as inconclusive are left out. Active and inactive are the calls of the source. Calls follow the shape of the dose curve; as a rule, active = well fitted inhibition curve with a large enough effect; inconclusive = small, poorly fitted or top-dose-only effect; inactive = no such curve, though single readings can be large or run the other way.
valueType: Potency

Example cases with answers are listed next.
>>> df
                                 smilesrepr  valuetype                val
0  CN(C)CCN1C(=O)c2cccc3cc(NC(N)=O)cc(c23)C1=O    Potency   2.95 µM (active)
1  Cc1cc(OCCCc2c3n(c4c(-c5c(C)nn(C)c5C)c(Cl)ccc24)[C@H](C)CN(c2cn(C)c4ccc(C(=O)O)cc24)C3=O)cc(C)c1Cl    Potency  0.468 µM (active)
2  Cc1ccc(-c2ncn(-c3ccc(Nc4nccc(-c5cccc(N6CCOCC6)c5)n4)cc3)n2)cn1    Potency   2.35 µM (active)

Now, please, on to the next compound.
Input line: Tell me Potency reported for C=CC(=O)Nc1cccc(Oc2nc(Nc3ccc(N4CCN(C)CC4)cc3)nc3ccsc23)c1
Output line: 8.33 µM (active)
